Source: patent US20100056439A1

Target: EGFR expressed on A431 cells (human, UniProt P00533 25-1210)
Assay: cell-based or functional assay
QUANTITY_NAME: Kinase Assay IC50 (nM), average
A complete answer gives the number followed by the unit.

BINDER	Kinase Assay IC50 (nM), average
DOM16-39-107 (other) VL: DIQMTQSPSSLSASVGDRVTITCRASQWIGILVDWYQQKPGEAPKLLIYYASFLQSGVPSRFSGSGSGTDFTLTISSLQPEDFATYYCQQANPAPLTFGQGTKVEIKR	20.5 nM

Okay, next one:
Req: Provide Kinase Assay IC50 (nM), average value for the following binder: DOM16-39-87 (other) VL: DIQMTQSPSSLSASVGDRVTITCRASQWIGILVDWYQQKPGEAPKLLIYYASFLQSGVPSRFSGSGSGTDFTLTISSLQPEDFATYYCQQANPAPLRFGQGTKVEIKR
Resp: 54.9 nM
